Catalogue of MFC readings, one per entry.
System: Aspergillus niger
Test: Antifungal activity against Aspergillus niger
Format: functional
Just the number in µg/mL, nothing appended.

molecule	MFC / µg/mL
CC[C@@H]([C@H](C)O)n1ncn(-c2ccc(N3CCN(c4ccc(OC[C@@H]5CO[C@@](Cn6cncn6)(c6ccc(F)cc6F)C5)cc4)CC3)cc2)c1=O	1

# context switch: different compound, same MFC
Provide Aspergillus niger MFC reading for `C[C@@H](c1ncncc1F)[C@](O)(Cn1cncn1)c1ccc(F)cc1F` .
2

====

Tested on: Geotrichum candidum
Experiment: Antifungal activity against Geotrichum candidum
Format: functional
observedProperty: MFC

Report measured MFC; entry is `CC[C@@H]([C@H](C)O)n1ncn(-c2ccc(N3CCN(c4ccc(OC[C@@H]5CO[C@@](Cn6cncn6)(c6ccc(F)cc6F)C5)cc4)CC3)cc2)c1=O`
> 8 µg/mL

Specify reported MFC for the compound shown: `C[C@@H]1[C@H](O)[C@@H](C)/C=C/C=C/C=C/C=C/C=C/C=C/C=C/[C@H](O[C@@H]2O[C@H](C)[C@@H](O)[C@H](N)[C@@H]2O)C[C@@H]2O[C@](O)(C[C@@H](O)C[C@@H](O)[C@H](O)CC[C@@H](O)C[C@@H](O)CC(=O)O[C@H]1C)C[C@H](O)[C@H]2C(=O)O`
> 4 µg/mL

Kindly indicate its recorded MFC. Item: CCC(C)n1ncn(-c2ccc(N3CCN(c4ccc(OCC5COC(Cn6cncn6)(c6ccc(Cl)cc6Cl)O5)cc4)CC3)cc2)c1=O (stereo not given)
> 8 µg/mL

Find the measured MFC of `C[C@@H](c1ncncc1F)[C@](O)(Cn1cncn1)c1ccc(F)cc1F` and report it.
> 4 µg/mL

Please report the measured MFC for `CC[C@H](C)C[C@H](C)CCCCCCCCC(=O)N[C@H]1C[C@@H](O)[C@@H](NCCN)NC(=O)[C@@H]2[C@@H](O)CCN2C(=O)[C@H]([C@H](O)CCN)NC(=O)[C@H]([C@H](O)[C@@H](O)c2ccc(O)cc2)NC(=O)[C@@H]2C[C@@H](O)CN2C(=O)[C@H]([C@@H](C)O)NC1=O`
> 8 µg/mL

====

Assay: Antifungal activity against Rhinocladiella aquaspersa
Format: functional
observedProperty: MFC (µg/mL)
State just the number; it will be interpreted in µg/mL.

> print(dat)
                                   compound  recordedresult
1  CCC(C)n1ncn(-c2ccc(N3CCN(c4ccc(OCC5COC(Cn6cncn6)(c6ccc(Cl)cc6Cl)O5)cc4)CC3)cc2)c1=O (stereo not drawn)             0.5

# input for lookup
Kindly indicate its recorded MFC. Item: `CC[C@@H]([C@H](C)O)n1ncn(-c2ccc(N3CCN(c4ccc(OC[C@@H]5CO[C@@](Cn6cncn6)(c6ccc(F)cc6F)C5)cc4)CC3)cc2)c1=O`
0.125

====

Test system: Aspergillus niger
Assay: Antifungal activity against Aspergillus niger by EUCAST method
Assay type: functional
Below, each entry is listed alongside its reported MIC.
Form entry: value (µg/mL) — number only.

Examples with answers:
compound	MIC / µg/mL
CC[C@@H]([C@H](C)O)n1ncn(-c2ccc(N3CCN(c4ccc(OC[C@@H]5CO[C@@](Cn6cncn6)(c6ccc(F)cc6F)C5)cc4)CC3)cc2)c1=O	0.26
CC[C@H](C)C[C@H](C)CCCCCCCCC(=O)N[C@H]1C[C@@H](O)[C@@H](NCCN)NC(=O)[C@@H]2[C@@H](O)CCN2C(=O)[C@H]([C@H](O)CCN)NC(=O)[C@H]([C@H](O)[C@@H](O)c2ccc(O)cc2)NC(=O)[C@@H]2C[C@@H](O)CN2C(=O)[C@H]([C@@H](C)O)NC1=O	0.36
C[C@@H]1[C@H](O)[C@@H](C)/C=C/C=C/C=C/C=C/C=C/C=C/C=C/[C@H](O[C@@H]2O[C@H](C)[C@@H](O)[C@H](N)[C@@H]2O)C[C@@H]2O[C@](O)(C[C@@H](O)C[C@@H](O)[C@H](O)CC[C@@H](O)C[C@@H](O)CC(=O)O[C@H]1C)C[C@H](O)[C@H]2C(=O)O	1
C[C@@H](c1ncncc1F)[C@](O)(Cn1cncn1)c1ccc(F)cc1F	0.33

Here is another compound to look at.
Answer with the recorded MIC for the compound listed here: CCC(C)n1ncn(-c2ccc(N3CCN(c4ccc(OCC5COC(Cn6cncn6)(c6ccc(Cl)cc6Cl)O5)cc4)CC3)cc2)c1=O (stereo not given)
0.98
